System: Jurkat
Assay: cell count relative to DMSO control (fraction of control); higher = more cells (less growth inhibition)
Settings: 48 h
Where a name gives a salt, the structure may show the parent alone.
Listed here: items and their measured cell count.
# respond with the number and nothing more

Here are 5 compounds together with their reported answers.
Compound: CC(=O)OC[C@H]1O[C@@H]([S-])[C@H](OC(C)=O)[C@@H](OC(C)=O)[C@@H]1OC(C)=O.CCP(CC)CC.[Au+] [Auranofin] (concentration: 250 nM)
Observed: 0.762

Compound: CCc1ccc(CCOc2ccc(CC3SC(=O)NC3=O)cc2)nc1 (centres undefined) [Pioglitazone·HCl] (concentration: 25 µM)
Observed: 0.906

Compound: C[C@H]1O[C@@H](O[C@H]2[C@@H](O)C[C@H](O[C@H]3[C@@H](O)C[C@H](O[C@H]4CC[C@@]5(C)[C@H](CC[C@@H]6[C@@H]5C[C@@H](O)[C@]5(C)[C@@H](C7=CC(=O)OC7)CC[C@]65O)C4)O[C@@H]3C)O[C@@H]2C)C[C@H](O)[C@@H]1O [Digoxin] (concentration: 25 nM)
Observed: 0.175

Compound: CCCCNc1cc(C(=O)O)cc(S(N)(=O)=O)c1Oc1ccccc1 [Bumetanide] (concentration: 25 µM)
Observed: 0.863

Compound: COCCCOc1ccnc(C[S+]([O-])c2nc3ccccc3[nH]2)c1C (centres undefined) [Rabeprazole·Na] (concentration: 25 µM)
Observed: 0.523

Provide Jurkat cell count reading for O=S(=O)(O)CCS [Mesna] (concentration: 25 µM) . 0.769

Provide Jurkat cell count reading for CC1(C)S[C@@H]2[C@H](NC(=O)[C@H](N)c3ccccc3)C(=O)N2[C@H]1C(=O)O [Ampicillin Trihydrate] (concentration: 25 µM) . 1.17

Provide Jurkat cell count reading for CCCc1cc(=O)[nH]c(=S)[nH]1 [Propylthiouracil] (concentration: 25 µM) . 0.981

Provide Jurkat cell count reading for CC(C)[C@H]1CC[C@H](C(=O)N[C@H](Cc2ccccc2)C(=O)O)CC1 [Nateglinide] (concentration: 25 µM) . 0.883

----------
System: Jurkat
Experiment: cell count relative to DMSO control (fraction of control); higher = more cells (less growth inhibition)
Conditions: 48 h
Counter-ions that a name gives are not always drawn.
Metric: cell count

Compound: C[C@H]1COc2c(N3CCN(C)CC3)c(F)cc3c(=O)c(C(=O)O)cn1c23 [Levofloxacin·HCl] (concentration: 25 µM)
cell count: 0.904

Give reported cell count value for CS(=O)(=O)CCNCc1ccc(-c2ccc3ncnc(Nc4ccc(OCc5cccc(F)c5)c(Cl)c4)c3c2)o1 [Lapatinib Ditosylate] (concentration: 25 µM) 0.911

Give reported cell count value for CCOC(=O)[C@H](CCc1ccccc1)N[C@@H](C)C(=O)N1[C@H](C(=O)O)C[C@H]2CCCC[C@@H]21 [Trandolapril] (concentration: 25 µM) 0.924

----------
Test system: Jurkat
Experiment: cell count relative to DMSO control (fraction of control); higher = more cells (less growth inhibition)
Settings: 48 h
Counter-ions that a name gives are not always drawn.
Threshold check on cell count: at or above 0.8 gives true (1), strictly below gives false (0).

Compound: CC(C)(C)NC[C@H](O)c1ccc(O)c(CO)c1 [Levalbuterol·HCl] (concentration: 25 µM)
System Under Test: Jurkat
Class: true (1)

Please tell me: is the compound COCCc1ccc(OCC(O)CNC(C)C)cc1 (stereo not drawn) [Metoprolol Tartrate] (concentration: 25 µM) at or over 0.8 in terms of cell count? true (1)

Please tell me: is the compound CC(c1cc2ccccc2s1)N(O)C(N)=O (stereo not drawn) [Zileuton] (concentration: 25 µM) at or over 0.8 in terms of cell count? true (1)

Please tell me: is the compound NS(=O)(=O)Cc1noc2ccccc12 [Zonisamide] (concentration: 25 µM) at or over 0.8 in terms of cell count? false (0)

Please tell me: is the compound O=NN(CCCl)C(=O)NC1CCCCC1 [Lomustine] (concentration: 25 µM) at or over 0.8 in terms of cell count? false (0)

Please tell me: is the compound CC(=O)N[C@@H](CS)C(=O)O [Acetylcysteine] (concentration: 25 µM) at or over 0.8 in terms of cell count? false (0)

Please tell me: is the compound OC[C@H]1O[C@@H](n2cnc3c2N=CNC[C@H]3O)C[C@@H]1O [Pentostatin] (concentration: 25 µM) at or over 0.8 in terms of cell count? true (1)

----------
Tested on: Jurkat
Experiment: mean cell size (FSC-A) relative to DMSO control (fraction of control); higher = larger cells
Conditions: 48 h
Structures can show the parent of a compound that is named as a salt.
Metric: mean cell size
# respond with the number and nothing more

Compound: COc1cc(NC(C)CCCN)c2ncccc2c1 (stereo not drawn) [Primaquine Phosphate] (concentration: 25 µM)
Observed: 1.01
--
Compound: C=CC(N)CCC(=O)O (stereo not drawn) [Vigabatrin] (concentration: 25 µM)
Observed: 1

Give reported mean cell size value for CC1(C)S[C@@H]2[C@H](NC(=O)[C@H](N)c3ccc(O)cc3)C(=O)N2[C@H]1C(=O)O [Amoxicillin] (concentration: 25 µM) 0.988

Give reported mean cell size value for CN(C)CC(c1ccc(O)cc1)C1(O)CCCCC1 (stereo not drawn) [Desvenlafaxine Succinate Hydrate] (concentration: 25 µM) 0.993

Give reported mean cell size value for NC(N)=Nc1nc(CSCC/C(N)=N/S(N)(=O)=O)cs1 [Famotidine] (concentration: 25 µM) 0.979

Give reported mean cell size value for COC(=O)CCC(=O)CN [Methyl Aminolevulinate·HCl] (concentration: 25 µM) 0.99

Give reported mean cell size value for N=C(N)NCCCC[C@@H]1NC(=O)CCSSC[C@@H](C(N)=O)NC(=O)[C@@H]2CCCN2C(=O)[C@H](Cc2c[nH]c3ccccc23)NC(=O)[C@H](CC(=O)O)NC(=O)CNC1=O [Eptifibatide] (concentration: 25 µM) 0.988

Give reported mean cell size value for CC[C@@H]([C@H](C)O)n1ncn(-c2ccc(N3CCN(c4ccc(OC[C@@H]5CO[C@@](Cn6cncn6)(c6ccc(F)cc6F)C5)cc4)CC3)cc2)c1=O [Posaconazole] (concentration: 25 µM) 1.02

----------
System: Jurkat
Assay: mean cell size (FSC-A) relative to DMSO control (fraction of control); higher = larger cells
Conditions: 48 h
Structures can show the parent of a compound that is named as a salt.
Listed here: items and their measured mean cell size.

Here are 2 molecules together with their reported answers.
Molecule: CNCC[C@H](Oc1cccc2ccccc12)c1cccs1 [Duloxetine·HCl] (concentration: 25 µM)
mean cell size: 1.02
//
Molecule: Clc1ccc(COC(Cn2ccnc2)c2ccc(Cl)cc2Cl)c(Cl)c1 (stereo not drawn) [Miconazole] (concentration: 25 µM)
mean cell size: 0.976

Give reported mean cell size value for Cc1cccc(C)c1OCC(C)N (stereo not drawn) [Mexiletine·HCl] (concentration: 25 µM) 0.983

----------
Tested on: Jurkat
Test: cell count relative to DMSO control (fraction of control); higher = more cells (less growth inhibition)
Details: 48 h
Where a name gives a salt, the structure may show the parent alone.
Threshold check on cell count: at or above 0.8 gives 1 (yes), strictly below gives 0 (no).

Compound: CC(=O)N(O)CCCCCNC(=O)CCC(=O)N(O)CCCCCNC(=O)CCC(=O)N(O)CCCCCN [Deferoxamine Mesylate] (concentration: 25 µM)
Class: 0 (no)

Please tell me: is the compound NNC(=O)c1ccncc1 [Isoniazid] (concentration: 25 µM) at or over 0.8 in terms of cell count? 1 (yes)

Please tell me: is the compound CO[C@@]12[C@H](COC(N)=O)C3=C(C(=O)C(C)=C(N)C3=O)N1C[C@@H]1N[C@@H]12 [Mitomycin C] (concentration: 2.5 µM) at or over 0.8 in terms of cell count? 0 (no)

Please tell me: is the compound Cc1ccccc1C(OCCN(C)C)c1ccccc1 (stereo not given) [Orphenadrine Citrate] (concentration: 25 µM) at or over 0.8 in terms of cell count? 0 (no)

Please tell me: is the compound Cc1nc(Nc2ncc(C(=O)Nc3c(C)cccc3Cl)s2)cc(N2CCN(CCO)CC2)n1 [Dasatinib] (concentration: 2.5 µM) at or over 0.8 in terms of cell count? 1 (yes)

Please tell me: is the compound O=C1NC(=O)C(c2ccccc2)(c2ccccc2)N1 [Phenytoin] (concentration: 25 µM) at or over 0.8 in terms of cell count? 0 (no)

----------
Test system: Jurkat
Test: mean cell size (FSC-A) relative to DMSO control (fraction of control); higher = larger cells
Conditions: 48 h
Counter-ions that a name gives are not always drawn.
Metric: mean cell size
# respond with the number and nothing more

Molecule: CC(N)C12CC3CC(CC(C3)C1)C2 (centres undefined) [Rimantadine·HCl] (concentration: 25 µM)
mean cell size: 1.02
//
Molecule: CCCN1CCCC[C@H]1C(=O)Nc1c(C)cccc1C [Ropivacaine·HCl Monohydrate] (concentration: 25 µM)
mean cell size: 0.978
//
Molecule: Nc1ncn([C@@H]2O[C@H](CO)[C@@H](O)[C@H]2O)c(=O)n1 [Azacitidine] (concentration: 25 µM)
mean cell size: 0.977
//
Molecule: Nc1nc(=O)[nH]cc1F [Flucytosine] (concentration: 25 µM)
mean cell size: 0.997
//
Molecule: CC1(C)O[C@@H]2C[C@H]3[C@@H]4C[C@H](F)C5=CC(=O)C=C[C@]5(C)[C@H]4[C@@H](O)C[C@]3(C)[C@]2(C(=O)CO)O1 [Flunisolide] (concentration: 2.5 µM)
mean cell size: 0.996

Provide Jurkat mean cell size reading for CC(C)(C(=O)O)c1ccc(C(O)CCCN2CCC(C(O)(c3ccccc3)c3ccccc3)CC2)cc1 (centres undefined) [Fexofenadine·HCl] (concentration: 25 µM) . 0.996

Provide Jurkat mean cell size reading for O=C1CCc2ccc(OCCCCN3CCN(c4cccc(Cl)c4Cl)CC3)cc2N1 [Aripiprazole] (concentration: 25 µM) . 1.02

Provide Jurkat mean cell size reading for CCC[C@H](N[C@@H](C)C(=O)N1[C@H](C(=O)O)C[C@@H]2CCCC[C@@H]21)C(=O)OCC [Perindopril Erbumine] (concentration: 25 µM) . 0.995

Provide Jurkat mean cell size reading for CC(C)(C(=O)c1cccnc1)c1cccnc1 [Metyrapone] (concentration: 25 µM) . 1.04

Provide Jurkat mean cell size reading for CC(=O)CC(c1ccccc1)c1c(O)c2ccccc2oc1=O (centres undefined) [Warfarin·Na] (concentration: 25 µM) . 1.04

Provide Jurkat mean cell size reading for C#C[C@]1(O)CC[C@H]2[C@@H]3CCC4=Cc5oncc5C[C@]4(C)[C@H]3CC[C@@]21C [Danazol] (concentration: 25 µM) . 0.995
